- tgt: MBP-FoxP1dN (Mus musculus, UniProt P58462 326-579)
- Sequence: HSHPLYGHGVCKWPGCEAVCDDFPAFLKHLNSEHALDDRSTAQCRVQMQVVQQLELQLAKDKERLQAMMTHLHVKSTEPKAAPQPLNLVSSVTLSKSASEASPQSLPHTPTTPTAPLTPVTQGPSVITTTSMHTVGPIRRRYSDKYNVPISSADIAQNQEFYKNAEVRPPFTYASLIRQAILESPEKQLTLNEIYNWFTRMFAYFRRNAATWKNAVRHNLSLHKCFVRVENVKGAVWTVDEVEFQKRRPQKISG
- assay-text: PD-seq (MBP pull-down with sequencing); 20 mM Tris-HCl pH 7.5, 100 mM NaCl, 1.5 mM MgCl2, 0.4 uM protein, 0.1 uM dsDNA library, 30 min, room temperature, amylose pull-down; high values mean tight binding
- condition: protein: recombinant; tags: His6-MBP; chain copies: 2; dsDNA, one strand shown
In all, about 16,000 sequences were measured (“rpm ratio (pull-down/input)”: median about 0.94, highest 2% from about 1.7 on). The list comes from a sample in which the highest values are over-represented; it also holds close analogues and randomly drawn sequences.
endpoint-label: binding signal

>  <biosequence>
GATGATTGTTCTCCCAGCTGATGAATTCCGTGTTTCGAGTAAACAAATTTTCCTAATCTTTCTGTTCAAGCGCCATCTAC

>  <endpoint-label>
binding signal

>  <test-result>
0.891 RPM ratio (pull-down/input)

$$$$
>  <biosequence>
GATGATTGTTCTCCCAGCTGATGAATTTGCTTACTCGAGTAAACAAATTTTCCTAATCTTTCTGTTCAAGCGCCATCTAC

>  <endpoint-label>
binding signal

>  <test-result>
1.69 RPM ratio (pull-down/input)

$$$$
>  <biosequence>
GATGATTGTTCTCCCAGCTGATGAATTATAATCTTCGAGTAAACAAATTTTCCTAATCTTTCTGTTCAAGCGCCATCTAC

>  <endpoint-label>
binding signal

>  <test-result>
0.909 RPM ratio (pull-down/input)

$$$$

[in] Item "GATGATTGTTCTCCCAGCTGATGAATTTTTGGTGTCGAGTAAACAAATTTTCCTAATCTTTCTGTTCAAGCGCCATCTAC" with MBP-FoxP1dN (Mus musculus, UniProt P58462 326-579) - binding signal?
[out] 0.926 RPM ratio (pull-down/input)

[in] Please answer likewise for "GATGATTGTTCTCCCAGCTGATGAATTTGGTGTGTCGAGTAAACAAATTTTCCTAATCTTTCTGTTCAAGCGCCATCTAC"
[out] 1 RPM ratio (pull-down/input)

[in] Try the sequence "GATGATTGTTCTCCCAGCTGATGAATTGGTGTTGTCGAGTAAACAAATTTTCCTAATCTTTCTGTTCAAGCGCCATCTAC"
[out] 2.78 RPM ratio (pull-down/input)

[in] Follow-up item: "GATGATTGTTCTCCCAGCTGATGAATTGCTATGTTCGAGTAAACAAATTTTCCTAATCTTTCTGTTCAAGCGCCATCTAC"
[out] 1.24 RPM ratio (pull-down/input)
